- System: Matrix protein 2 (Influenza A virus (A/Udorn/307/1972(H3N2)), UniProt P0DOF8, S31N)
- Procedure Details: Binding affinity to Influenza A virus A/Udorn/72 M2 proton channel S31N mutant expressed in Xenopus laevis oocytes at pH 5.5 by two-electrode voltage clamp assay
- Type: cell-based, Influenza A virus (A/udorn/1972(H3N2))
Property Measured: pKd
// field semantics: pKd = negative decimal log of concentration (mol/L)

CC(C)(N)C12CC3CC(CC(C3)C1)C2
3.35

Now for another entry.
query: Which pKd value belongs to `CCCC(N)(CCC)C12CC3CC(CC(C3)C1)C2` ?
result: 2.74
